# measured-on: KRAS G12V (Homo sapiens (Human), UniProt P01116+P62937, G12V)
# Sequence (P01116 other isoform, or with tags, fused parts or gaps G12V): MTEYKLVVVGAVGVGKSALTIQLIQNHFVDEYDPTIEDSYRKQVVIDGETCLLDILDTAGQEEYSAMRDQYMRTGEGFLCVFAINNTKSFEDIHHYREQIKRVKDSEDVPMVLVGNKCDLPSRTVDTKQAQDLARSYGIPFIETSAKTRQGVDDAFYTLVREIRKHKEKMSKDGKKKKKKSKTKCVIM
# Sequence (P62937 whole entry): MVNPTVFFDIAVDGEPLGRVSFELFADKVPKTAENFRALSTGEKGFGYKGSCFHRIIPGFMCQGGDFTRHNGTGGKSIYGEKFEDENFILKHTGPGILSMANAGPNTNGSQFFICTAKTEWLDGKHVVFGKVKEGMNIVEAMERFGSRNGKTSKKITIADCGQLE
# assay-protocol: Ras-Raf disruption/FRET/MOA assay (BRAF RBD, Cyclophilin A)
# Type: biochemical
# assay-conditions: read-out: KRAS G12V FRET IC50
Attribute: IC50

CCn1c(-c2cccnc2[C@H](C)OC)c2c3cc(ccc31)-c1cc(O)cc(c1)C[C@H](NC(=O)[C@H](C(C)C)N(C)C(=O)[C@H]1[C@@H](N)[C@@H]3CC[C@H]1O3)C(=O)N1CCC[C@H](N1)C(=O)OCC(C)(C)C2	1 to 10 µM

Request: Enter reported IC50 observed with KRAS G12V (Homo sapiens (Human), UniProt P01116+P62937, G12V) for CCn1c(-c2cccnc2[C@H](C)OC)c2c3cc(ccc31)-c1csc(n1)C[C@H](NC(=O)[C@H](C(C)C)N(C)C(=O)N1[C@H](C)COC[C@@H]1C)C(=O)N1CCC[C@H](N1)C(=O)OCC(C)(C)C2
Result: 1 to 10 µM

====

# measured-on: KRAS G13D (Homo sapiens (Human), UniProt P01116+P62937, G13D)
# Sequence (P01116 other isoform, or with tags, fused parts or gaps G13D): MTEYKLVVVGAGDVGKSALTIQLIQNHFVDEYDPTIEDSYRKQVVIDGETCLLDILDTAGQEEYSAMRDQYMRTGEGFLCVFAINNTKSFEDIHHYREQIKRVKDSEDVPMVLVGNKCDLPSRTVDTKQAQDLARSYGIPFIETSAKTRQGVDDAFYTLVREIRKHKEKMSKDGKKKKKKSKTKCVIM
# Sequence (P62937 whole entry): as the sequence (P62937 whole entry) above
# assay-protocol: Ras-Raf disruption/FRET/MOA assay (BRAF RBD, Cyclophilin A)
# Type: biochemical
# assay-conditions: read-out: KRAS G13D FRET data IC50
Attribute: IC50

Here are 3 compounds together with their reported answers.
CCn1c(-c2cccnc2[C@H](C)OC)c2c3cc(ccc31)-c1csc(n1)C[C@H](NC(=O)[C@H](C(C)C)N(C)C(=O)N1CC3(CC(NCCOC)C3)C1)C(=O)N1CCC[C@H](N1)C(=O)OCC(C)(C)C2 [Compound A512]	100 to 1000 nM
CCn1c(-c2cccnc2[C@H](C)OC)c2c3cc(ccc31)-c1cc(O)cc(c1)C[C@H](NC(=O)[C@H](C(C)C)N(C)C(=O)[C@@H]1CCN(C(=O)OC)[C@@H]1c1ccccc1)C(=O)N1CCC[C@H](N1)C(=O)OCC(C)(C)C2 [Compound A501]	10 to 100 nM
CCn1c(-c2cccnc2[C@H](C)OC)c2c3cc(ccc31)-c1csc(n1)C[C@H](NC(=O)[C@H](C(C)C)N(C)C(=O)N1CCN3CCOCC3C1)C(=O)N1CCC[C@H](N1)C(=O)OCC(C)(C)C2 (stereo partly shown) [Compound A296]	1000 to 10000 nM

Consider now this further compound.
Request: I'd like to know its IC50. The compound in question is CCn1c(-c2cnccc2COC)c2c3cc(ccc31)-c1cc(O)cc(c1)C[C@H](NC(=O)[C@H](C(C)C)N(C)C(=O)[C@H]1CNC[C@H]1C(F)(F)F)C(=O)N1CCC[C@H](N1)C(=O)OCC(C)(C)C2 [Compound A216]
Result: 10 to 100 nM

====

# measured-on: NRAS Q61K (Homo sapiens (Human), UniProt P01111+P62937, Q61K)
# Sequence (P01111 whole entry Q61K, one chain of several): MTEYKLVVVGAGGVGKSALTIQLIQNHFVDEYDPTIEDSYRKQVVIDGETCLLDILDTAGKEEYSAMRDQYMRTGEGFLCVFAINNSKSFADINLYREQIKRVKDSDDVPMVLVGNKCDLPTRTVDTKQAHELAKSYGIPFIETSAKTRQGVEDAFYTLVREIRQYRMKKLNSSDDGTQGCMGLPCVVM
# assay-protocol: Ras-Raf disruption/FRET/MOA assay, NRAS Q61K
# Format: biochemical
metric: IC50

Request: I'd like to know its IC50. The compound in question is CCn1c(-c2cccnc2[C@H](C)OC)c2c3cc(ccc31)-c1cc(O)cc(c1)C[C@H](NC(=O)[C@H](C(C)C)N(C)C(=O)[C@]1(C)CCCN1C(=O)[C@H]1CN1)C(=O)N1CCC[C@H](N1)C(=O)OCC(C)(C)C2 [Example 243]
Result: 1000 to 10000 nM
